- assay.procedure: chemical genetic growth profiling, strain panel (AID 1159580);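 further: tested at 20 µM; growth read once vehicle control cultures reached saturation at 30 °C; 1 = growth at the plate median or of vehicle wells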
- particulars: S. cerevisiae deletion strains, growth OD, locus YOR080W, strain dia2
The whole screen tested about 5,500 compounds, of which about 2,000 (36%) were called active. Another 18% or so got no clear call; they are omitted. No stated cut-off is given here; in the data, active means normalized growth mostly below about 0.91 (no sharp cut-off); inconclusive means no clear call, values can overlap the other calls; inactive means mostly above about 0.92. This is one part of the list.
Return exactly one item of yes (1) = active, no (0) = inactive

CCCC(C)C1(CC)C(=O)NC(=O)NC1=O (centres undefined)	no (0)
N[C@@H](Cc1ccc(O)c(O)c1)C(=O)O	no (0)
CO[C@H]1/C=C/O[C@@]2(C)Oc3c(C)c(O)c4c(O)c(c5c(nc6cc(C)ccn65)c4c3C2=O)NC(=O)/C(C)=C\C=C\[C@H](C)[C@H](O)[C@@H](C)C(O)[C@@H](C)[C@H](OC(C)=O)[C@@H]1C (some centres undefined)	no (0)

Test call, this compound: C=C(C)C1CC=C(CO)CC1 (centres undefined)
no (0)

Also O[N+]1=CC=CCC1=S.On1ccccc1=S.[Zn] , if possible.
yes (1)

Would you kindly repeat that for CO[C@H]1/C=C/O[C@@]2(C)Oc3c(C)c(O)c4c(O)c(c(/C=N/N5CCN(C)CC5)c(O)c4c3C2=O)NC(=O)/C(C)=C\C=C\C(C)[C@H](O)[C@@H](C)[C@@H](O)[C@@H](C)[C@@H](OC(C)=O)[C@@H]1C (some centres undefined) ?
no (0)

Continue with C=C[C@@H](C1=CC(=O)C(OC)=C(OC)C1=O)c1ccccc1
no (0)

C=CC(C1=CC(=O)C(OC)=CC1=O)c1ccc(O)cc1 (centres undefined) ?
no (0)

What do you get for C[C@H](N)[C@H](O)c1ccc(O)c(O)c1 ?
no (0)

---

Listed here: items and their measured normalized growth.
- assay.procedure: chemical genetic growth profiling, strain panel (AID 1159580)
- particulars: S. cerevisiae deletion strains, growth OD, locus YER155C, strain BEM2 (second series), stronger effect = lower value
Among all 5,500 compounds or so, about 2,000 (36%) were called active. Roughly 18% stayed inconclusive and do not appear here. This is one part of the list.
Give the figure only, with no unit attached.

// known answers, use as guide
O=C1CCCC2C3CC(CN12)[C@@H]1CCCCN1C3 (some centres undefined)	1.02
Oc1ccc(Cl)c2cccnc12	0.0997
CN/C(=C\[N+](=O)[O-])NCCSCc1ccc(CN(C)C)o1	0.973
CO[C@H]1/C=C/O[C@@]2(C)Oc3c(C)c(O)c4c(O)c(c(/C=N/N5CCN(C)CC5)c(O)c4c3C2=O)NC(=O)/C(C)=C\C=C\C(C)[C@H](O)[C@@H](C)[C@@H](O)[C@@H](C)[C@@H](OC(C)=O)[C@@H]1C (some centres undefined)	1.02
Nc1ncnc2c1ncn2C1O[C@H](COP(=O)(O)O)[C@@H](O)[C@H]1O (some centres undefined)	1.05

Need normalized growth, item C[n+]1cccc(C(=O)[O-])c1
0.992

Item: O=c1[nH]c(=O)n(C2C[C@@H](O)[C@@H](CO)O2)cc1F (some centres undefined)
1.01

And then Nc1ccc(C(=O)NCC(=O)O)cc1 , what is it?
1.02

Could you do the same for Oc1c(Br)cc(Br)c2cccnc12 , please?
0.0894

---

- assay.procedure: chemical genetic growth profiling, strain panel (AID 1159580)
- particulars: S. cerevisiae deletion strains, growth OD, locus YIL066C, strain RNR3, stronger effect = lower value
Hit rate of the full screen: of about 5,500 compounds, about 2,000 (36%) were called active. Inconclusive results (about 18%) are left out. The list shows a part of the results.
reported.property: normalized growth
# respond with the number and nothing more

Sample answers from the record:
COc1cc(C(=O)NCc2ccc(OCCN(C)C)cc2)cc(OC)c1OC	0.963
CCCCC1=NC2(CCCC2)C(=O)N1Cc1ccc(-c2ccccc2-c2nn[nH]n2)cc1	0.974

Dear colleague, I am looking for the recorded normalized growth of the following molecule: CC(C)=CCC[C@](C)(O)C1CC=C(C)CC1 (some centres undefined)
1.02

Same question, CC1(C)CC2C1(O)CCC1(C)C=CC(O)C21CO (centres undefined) this time
0.992

Item: OC[C@@H](O)[C@@H](O[C@@H]1O[C@H](CO)[C@@H](O)[C@H](O)[C@H]1O)[C@H](O)[C@@H](O)CO
1.01

Follow-up entry: Cc1ccsc1/C=C/C1=NCCCN1C
0.998

Also, COc1cc(OC)c2c(=O)c(-c3ccccc3)c(C)oc2c1OC please.
1.01

And the next one, Cc1ccc(/C(=C\CN2CCCC2)c2ccccn2)cc1 ?
1.02

Can you check CO[C@H]1/C=C/O[C@@]2(C)Oc3c(C)c(O)c4c(O)c(c(/C=N/N5CCN(C)CC5)c(O)c4c3C2=O)NC(=O)/C(C)=C\C=C\C(C)[C@H](O)[C@@H](C)[C@@H](O)[C@@H](C)[C@@H](OC(C)=O)[C@@H]1C (some centres undefined) next?
1.01

---

- assay.procedure: chemical genetic growth profiling, strain panel (AID 1159580);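 further: tested at 20 µM; growth read once vehicle control cultures reached saturation at 30 °C; 1 = growth at the plate median or of vehicle wells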
- particulars: S. cerevisiae deletion strains, growth OD, locus YJL154C, strain vps35
The whole screen tested about 5,500 compounds, of which about 2,000 (36%) were called active. Not shown: some 18% with an inconclusive outcome. No stated cut-off is given here; in the data, active means normalized growth mostly below about 0.91 (no sharp cut-off); inconclusive means no clear call, values can overlap the other calls; inactive means mostly above about 0.92. Some of the results follow.
Select the matching outcome among y for active, n for inactive

Please review the entries below; each comes with its answer.
Oc1c(Cl)cc(Cl)c2cccnc12	y
Oc1c(I)cc(Cl)c2cccnc12	y
O=C(OC1Cc2c(O)cc(O)cc2OC1c1cc(O)c(O)c(O)c1-c1c(C2Oc3cc(O)cc(O)c3CC2OC(=O)c2cc(O)c(O)c(O)c2)cc(O)c(O)c1O)c1cc(O)c(O)c(O)c1 (configuration not stated)	n
CNC[C@@H](O)c1ccc(O)c(O)c1	n
COc1cc(C(=O)NCc2ccc(OCCN(C)C)cc2)cc(OC)c1OC	n

Returns: the outcome recorded for NCC(O)c1ccc(O)cc1 (configuration not stated) in this assay.
n

Again, but for CCN(CC)CCOc1ccc(/C(=C(\Cl)c2ccccc2)c2ccccc2)cc1
y

---

- assay.procedure: chemical genetic growth profiling, strain panel (AID 1159580);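 further: tested at 20 µM; growth read once vehicle control cultures reached saturation at 30 °C; 1 = growth at the plate median or of vehicle wells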
- particulars: S. cerevisiae deletion strains, growth OD, locus YOL012C, strain htz1
About 2,000 (36%) of roughly 5,500 compounds were called active. Another 18% or so got no clear call; they are omitted. The list shows a part of the results.
Below: a set of entries, each annotated with reported normalized growth.

Reference set (3 entries):
NCCNC(=O)c1ccc(Cl)cc1	1.91 (inactive)
Oc1c(I)cc(I)c2cccnc12	0.333 (inactive)
Nc1ncnc2c1ncn2C1O[C@H](COP(=O)(O)O)[C@@H](O)[C@H]1O (some centres undefined)	0.221 (inactive)

Look up normalized growth for this molecule: Nc1ccc(S(=O)(=O)Nc2ccccn2)cc1
0.921 (inactive)

Also check C=CC(C)(O)CC/C=C(\C)CCC=C(C)C (centres undefined)
0.833 (inactive)

Would you kindly repeat that for Nc1ccc(C(=O)NCC(=O)O)cc1 ?
1.06 (inactive)

Let us now turn to c1ccc2c3c([nH]c2c1)CNCC3
0.744 (inactive)

Note, next up: C[C@H]1[C@H]2CCC3C4CC=C5C[C@@H](N(C)C)CC[C@]5(C)C4CC[C@@]32CN1C (some centres undefined)
0.864 (inactive)

Same read-out for O=[N+]([O-])c1cc([As](=O)(O)O)ccc1O ?
0.214 (inactive)

What do you get for CCCc1occc(=O)c1/C=C/O ?
1.14 (inactive)

Please give the result for O=[N+]([O-])c1cc(O)c(O)c([N+](=O)[O-])c1 too.
1.22 (inactive)

And what about the molecule O=[N+]([O-])c1ccc(O)c([N+](=O)[O-])c1 ?
0.683 (inactive)

Now the same for CNC[C@@H](O)c1ccc(O)c(O)c1
0.8 (inactive)

Now the molecule Oc1c(Br)cc(Br)c2cccnc12
0.189 (active)

Also need CC(=O)OC1CC(OC(C)=O)C2(C)C(CC(OC(C)=O)C3(C)C2CCC2(C)C(c4ccoc4)CC4OC423)C1(C)C (centres undefined) , thanks.
0.881 (inactive)

Next molecule: CCCCC1(COC(=O)CCC(=O)O)C(=O)N(c2ccccc2)N(c2ccccc2)C1=O
1.51 (inactive)

Cool, now CC(=O)O[C@@H]1C[C@@]2(C)[C@H](c3ccoc3)C[C@H]3O[C@]32[C@]2(C)C(=O)C(O)=C3C(C)(C)C(=O)C=C[C@]3(C)C12 (some centres undefined)
0.819 (inactive)

---

- assay.procedure: chemical genetic growth profiling, strain panel (AID 1159580);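 further: tested at 20 µM; growth read once vehicle control cultures reached saturation at 30 °C; 1 = growth at the plate median or of vehicle wells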
- particulars: S. cerevisiae deletion strains, growth OD, locus YHR030C, strain SLT2
In all, about 5,500 compounds went through this assay and about 2,000 (36%) were called active. Inconclusive results (about 18%) are left out. No stated cut-off is given here; in the data, active means normalized growth mostly below about 0.91 (no sharp cut-off); inconclusive means no clear call, values can overlap the other calls; inactive means mostly above about 0.92. The list shows a part of the results.
// classify into 1 (yes) for active, 0 (no) for inactive

O=C(CCNNC(=O)c1ccncc1)NCc1ccccc1	0 (no)
c1ccc2c3c([nH]c2c1)CNCC3	0 (no)

Could you please tell me the result logged for CCCCC(CC)CN1CN(CC(CC)CCCC)CC(C)(N)C1 (stereo not given) in this assay?
1 (yes)

Would you kindly repeat that for CCCCCCCCCCCCCCCC(=O)OCC(O)[C@H]1OC(=O)C(O)=C1O (stereo not given in full) ?
1 (yes)

// same read-out, input: CC1(C)CCCC2(C)C3C1[C@@H](O)C2(C)C[C@H]3O (stereo not given in full)
0 (no)

And NC(=S)N/N=C\c1ccccc1 ?
0 (no)

Next compound up: NC(=S)N/N=C\c1ccc(F)c(Cl)c1
1 (yes)

Again, but for CO[C@H]1/C=C/O[C@@]2(C)Oc3c(C)c(O)c4c(O)c(c5c(nc6cc(C)ccn65)c4c3C2=O)NC(=O)/C(C)=C\C=C\[C@H](C)[C@H](O)[C@@H](C)C(O)[C@@H](C)[C@H](OC(C)=O)[C@@H]1C (stereo not given in full)
0 (no)

Repeat for the following compound: CC1(C)C(O)CC(O)C2(C)C1CC(O)C1(C)C2CCC2(C)C(c3ccoc3)CC3OC321 (stereo not given)
0 (no)

Next entry: O=C(NC(=O)c1c(F)cccc1F)Nc1ccc(Cl)cc1
0 (no)
